B1: Androgen receptor, residues 557 to 632; numbered along this chain, P10275 (parent)
chain: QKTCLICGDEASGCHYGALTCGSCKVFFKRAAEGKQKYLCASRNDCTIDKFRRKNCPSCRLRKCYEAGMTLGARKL

variants of: B1; experiment: abundance fitness (aPCA) (normalised: wild type 0, dead -1); higher = more abundant; growth selection in yeast, the domain comes from the species named; settings: Homo sapiens
I'd be grateful if you could share measured abundance fitness for these entries.
Answers are plain numbers.

For every record below, what is its abundance fitness?
1. QKTCLICGDEASGCHYGALTCGSCKVFFKRAAAGKQKYLCASRNDCTIDKFRRKNCPSCRLRKCYEAGMTLGARKL
2. QKTCLICGDEASGCHYGRLTCGSCKVFFKRAAEGKQKYLCASRNDCTIDKFRRKNCPSCRLRKCYEAGMTLGARKL
3. QKTCLICGDEASGCHYGADTCGSCKVFFKRAAEGKQKYLCASRNDCTIDKFRRKNCPSCRLRKCYEAGMTLGARKL
4. QKSCLICGDEASGCHYGALTCGSCKVFFKRAAEGKQKYLCASRNDCTIDKFRRKNCPSCRLRKCYEAGMTLGARKL
5. QKTCLICGDEASGCHYGALTCGSCKVFFKRAAEGKQKYLCASRNDCTIDKFRRKNCPSCRLRKCYEAGMTLSARKL

1: -0.121; 2: -0.24; 3: -0.048; 4: -0.059; 5: -0.092

For every record below, what is its abundance fitness?
1. QKTCLICGDEASGCHYGALTCGSCKVFFKRAAEGKQSYLCASRNDCTIDKFRRKNCPSCRLRKCYEAGMTLGARKL
2. QKTCLICGDEASGCHYGALTCGSCKVFFKRAAEGKQKYLCASRNDCTIDKFRRKNCPSCRLRKCYEAGMTLFARKL
3. QKTCLICGDEASGCHYGPLTCGSCKVFFKRAAEGKQKYLCASRNDCTIDKFRRKNCPSCRLRKCYEAGMTLGARKL

1: -0.086; 2: 0.06; 3: -0.26

For every record below, what is its abundance fitness?
1. KKTCLICGDEASGCHYGALTCGSCKVFFKRAAEGKQKYLCASRNDCTIDKFRRKNCPSCRLRKCYEAGMTLGARKL
2. QKTCLICGDEASGCHYGALTCGSCKVFFKRAAEGKQKYLCASRNDCTIDKFRRKNCPSCRLRKCYEAGMTLGAHKL
3. QKTCLICGDEASGCHYGALTCGSCKVFFKRAAEGKQKYLCASRNDCTIDKFRRKNCPSCRLRKCYEAGMTLRARKL
4. QKTCLICGDEASGCHYGALTCGSCKVFFKRACEGKQKYLCASRNDCTIDKFRRKNCPSCRLRKCYEAGMTLGARKL
5. QKTCLICGDEASGCHYGALTCGSCKVFFKRAFEGKQKYLCASRNDCTIDKFRRKNCPSCRLRKCYEAGMTLGARKL
6. QKTCLICYDEASGCHYGALTCGSCKVFFKRAAEGKQKYLCASRNDCTIDKFRRKNCPSCRLRKCYEAGMTLGARKL
7. QKPCLICGDEASGCHYGALTCGSCKVFFKRAAEGKQKYLCASRNDCTIDKFRRKNCPSCRLRKCYEAGMTLGARKL

0.076
-0.036
-0.009
-0.023
-0.197
0.036
-0.229

For every record below, what is its abundance fitness?
1. QKTCLICGDEASGCHYGALTCGSCKVFFKRAAEGKQKYLCASRNDCTIDKFRRKNAPSCRLRKCYEAGMTLGARKL
2. QKTCLICGDEASGCHYGALTCGSCKVFFKRAQEGKQKYLCASRNDCTIDKFRRKNCPSCRLRKCYEAGMTLGARKL
3. QKTCLICGDEASGCHYGACTCGSCKVFFKRAAEGKQKYLCASRNDCTIDKFRRKNCPSCRLRKCYEAGMTLGARKL
4. QKTCLICGDEASGCHYGALTCGSCKVFFKRAAEGKQKFLCASRNDCTIDKFRRKNCPSCRLRKCYEAGMTLGARKL
5. QKTCLICGDEASGCHYGALTCGSCKVFFKRAAEGKQKYLCASRNDCTIDQFRRKNCPSCRLRKCYEAGMTLGARKL

1: -0.533; 2: 0.034; 3: -0.19; 4: -0.097; 5: -0.075

For every record below, what is its abundance fitness?
1. QKTCLICGDEASGCHYGALTCGSCKVFFKRAAEGKQKYLCASRNDCTVDKFRRKNCPSCRLRKCYEAGMTLGARKL
2. QKTCLICHDEASGCHYGALTCGSCKVFFKRAAEGKQKYLCASRNDCTIDKFRRKNCPSCRLRKCYEAGMTLGARKL

[-0.02, -0.06]

// data source = the Human Domainome abundance scans (Beltran et al. 2025)
